TARGET: Cynomolgus monkey CD1a expressed on HEK-293 cells (Cynomolgus monkey, UniProt A0A2K5VQ68 17-326)
Sequence (A0A2K5VQ68 entry or part of it): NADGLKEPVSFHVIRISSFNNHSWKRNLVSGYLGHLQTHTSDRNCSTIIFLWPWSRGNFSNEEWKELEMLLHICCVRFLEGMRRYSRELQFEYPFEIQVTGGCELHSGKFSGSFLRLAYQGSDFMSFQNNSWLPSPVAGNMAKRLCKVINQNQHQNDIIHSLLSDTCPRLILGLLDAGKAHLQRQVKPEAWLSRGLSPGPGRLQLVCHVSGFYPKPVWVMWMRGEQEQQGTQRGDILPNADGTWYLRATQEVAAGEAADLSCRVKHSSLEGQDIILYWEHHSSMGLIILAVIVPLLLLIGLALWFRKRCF
TEST DETAILS: flow cytometry, HEK-293 cells, 10 µg/ml antibody
PARAMETER: Fluorescence Intensity Geomean (normalized to background) (fold over background)

1. 111 (VR12113) (antibody, V domains shown, also called OX111) VH: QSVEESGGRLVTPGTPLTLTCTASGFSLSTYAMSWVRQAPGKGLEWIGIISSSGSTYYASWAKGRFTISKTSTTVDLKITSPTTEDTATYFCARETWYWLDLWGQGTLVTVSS VL: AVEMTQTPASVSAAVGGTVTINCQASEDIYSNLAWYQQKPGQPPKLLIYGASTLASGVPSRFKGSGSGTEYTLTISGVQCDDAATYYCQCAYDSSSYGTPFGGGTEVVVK = 16.3
2. 77A (VR11851) (antibody, V domains shown, also called OX77a; antibody 77a) VH: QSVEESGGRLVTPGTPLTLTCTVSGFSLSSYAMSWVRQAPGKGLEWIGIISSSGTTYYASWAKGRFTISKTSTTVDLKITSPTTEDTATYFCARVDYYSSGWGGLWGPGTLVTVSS VL: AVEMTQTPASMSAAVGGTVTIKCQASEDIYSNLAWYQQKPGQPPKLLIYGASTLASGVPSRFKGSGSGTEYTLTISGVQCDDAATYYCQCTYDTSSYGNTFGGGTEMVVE = 1.4
3. 110 (VR12112) (antibody, V domains shown, also called OX110; antibody 110) VH: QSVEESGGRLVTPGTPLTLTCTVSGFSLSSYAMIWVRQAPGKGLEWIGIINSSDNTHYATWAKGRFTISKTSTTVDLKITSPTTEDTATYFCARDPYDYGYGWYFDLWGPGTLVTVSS VL: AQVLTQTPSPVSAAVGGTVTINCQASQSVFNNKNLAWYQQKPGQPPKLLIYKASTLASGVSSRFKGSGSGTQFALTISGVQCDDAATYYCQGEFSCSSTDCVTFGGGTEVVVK = 13.6
